This collection of values is drawn from patent US20260109763A1.

target: T1, human PILRA G78 extracellular domain (recombinant hPILRA ECD) (human, UniProt Q9UKJ1 20-197); assay: SPR, Biacore 8K; hPILRA ECD; antibody with wild-type Fc
T1 construct: also called hPILRA G78
T1 sequence (Q9UKJ1 20-197 R78G limits assumed): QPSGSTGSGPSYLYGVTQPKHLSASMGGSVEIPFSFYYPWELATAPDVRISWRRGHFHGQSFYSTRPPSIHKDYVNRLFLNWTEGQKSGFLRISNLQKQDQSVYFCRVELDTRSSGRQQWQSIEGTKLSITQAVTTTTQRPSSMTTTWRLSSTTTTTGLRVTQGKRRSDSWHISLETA
pKd: −log10 of the molar value.

binder: Anti-PILRA antibody clone 14 (antibody, V domains shown, Humanized) VH: EVQLVQSGAEVKKPGASVKVSCKASGYTFTEYYMYWVRQAPGQGLELIGRIDPEDGGTDYIEKFKNRVTITADTSTSTAYLELSSLRSEDTAVYFCATTIRGTVFAFWGQGTLVTVSS VL: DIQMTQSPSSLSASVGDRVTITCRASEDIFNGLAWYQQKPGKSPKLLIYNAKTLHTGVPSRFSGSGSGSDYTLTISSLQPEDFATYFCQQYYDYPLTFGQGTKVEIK
pKd: 8.79
//
binder: Anti-PILRA antibody clone 26 (antibody, V domains shown, Humanized) VH: EVQLVQSGAEVKKPGASVKVSCKASGYTFTEYYMYWVRQAPGQGLELIGRIDPEDGGTDYVEKFKNRVTLTADTSTSTAYLELSSLRSEDTAVYYCASTIRGTVFVYWGQGTLVTVSS VL: DIQMTQSPSSLSASVGDRVTITCRPSEDIYNGLAWYQQKPGKAPKLLIYNANSLHTGVPSRFSGSGSGTDYTLTISSLQPEDFATYFCQQYYDYPLTFGQGTKVEIK
pKd: 9.29
